# measured on: UniProt:P21731
# Sequence (P21731 whole entry): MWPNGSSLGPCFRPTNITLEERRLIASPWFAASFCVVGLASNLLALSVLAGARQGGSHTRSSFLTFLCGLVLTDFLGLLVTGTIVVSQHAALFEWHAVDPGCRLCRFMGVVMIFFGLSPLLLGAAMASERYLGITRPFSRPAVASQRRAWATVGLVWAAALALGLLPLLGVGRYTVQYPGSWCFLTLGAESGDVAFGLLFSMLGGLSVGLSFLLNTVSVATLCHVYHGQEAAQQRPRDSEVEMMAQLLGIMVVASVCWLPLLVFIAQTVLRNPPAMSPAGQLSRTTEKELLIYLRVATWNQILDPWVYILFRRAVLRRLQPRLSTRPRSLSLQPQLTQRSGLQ
# assay name: Other receptors functional activity, hTP
# Format: cell-based
observation type: pEC50
Give only the number. pEC50 is defined as minus log10 of concentration in molar units.

QUERY: May I ask what pEC50 has been recorded for CCCCCCc1cnc2c(C(=O)Nc3cccc(OCC(=O)O)c3)cccc2c1 ?
RESULT: 5.18

###

Measured Ki (EP4 (Homo sapiens, UniProt P35408))
Use µM as the unit, but write only the number.

CCCC(O)c1ccc2c(C(=O)Nc3cccc(OCC(=O)O)c3)cccc2c1 (centres unmarked) [Example 11]    5.31

QUERY: Test system EP4 (Homo sapiens, UniProt P35408); read-out Ki; what value for CCCc1ccc2c(C(=O)Nc3cccc(OCC(=O)O)c3)cccc2c1 [Example 5] ?
RESULT: 6.92

QUERY: Test system EP4 (Homo sapiens, UniProt P35408); read-out Ki; what value for CCCCCCc1cnc2c(C(=O)Nc3cccc(OCC(=O)O)c3)cccc2c1 [Example 12] ?
RESULT: 2.15

###

Each entry below lists one item and its recorded EC50 value.
# measured on: EP4 (Homo sapiens, UniProt P35408)
# Sequence (P35408 whole entry): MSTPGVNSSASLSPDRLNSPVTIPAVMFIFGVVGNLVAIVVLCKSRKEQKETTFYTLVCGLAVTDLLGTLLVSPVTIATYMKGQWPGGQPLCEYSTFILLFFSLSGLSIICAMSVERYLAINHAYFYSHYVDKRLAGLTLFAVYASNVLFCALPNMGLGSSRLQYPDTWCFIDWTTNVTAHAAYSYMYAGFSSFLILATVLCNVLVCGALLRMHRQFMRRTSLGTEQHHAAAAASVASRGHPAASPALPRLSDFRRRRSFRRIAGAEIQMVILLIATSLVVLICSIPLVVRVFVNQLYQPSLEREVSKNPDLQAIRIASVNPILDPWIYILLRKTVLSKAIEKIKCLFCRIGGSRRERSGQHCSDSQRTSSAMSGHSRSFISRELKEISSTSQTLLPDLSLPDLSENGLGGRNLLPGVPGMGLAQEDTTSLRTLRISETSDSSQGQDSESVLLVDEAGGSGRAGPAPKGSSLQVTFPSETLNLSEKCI
# assay name: EP4 cAMP functional assay
# Format: cell-based
# condition parameters: unit inferred

Some compounds with recorded EC50:
CCCCc1cnc2c(C(=O)NCCc3ccc(C(=O)O)s3)cccc2c1 [Example 14]    > 10 µM
CCCCc1cnc2c(C(=O)Nc3cccc(OCC(=O)O)c3)cccc2c1 [Example 13]    > 10 µM

As a next step, examine the compound that follows.
QUERY: May I ask what EC50 has been recorded for CCCCCOc1ccc2c(C(=O)Nc3cccc(OCC(=O)O)c3)cccc2c1 [Example 15] ?
RESULT: > 10 µM

###

# measured on: EP2 (Homo sapiens)
# Sequence (P43116 whole entry): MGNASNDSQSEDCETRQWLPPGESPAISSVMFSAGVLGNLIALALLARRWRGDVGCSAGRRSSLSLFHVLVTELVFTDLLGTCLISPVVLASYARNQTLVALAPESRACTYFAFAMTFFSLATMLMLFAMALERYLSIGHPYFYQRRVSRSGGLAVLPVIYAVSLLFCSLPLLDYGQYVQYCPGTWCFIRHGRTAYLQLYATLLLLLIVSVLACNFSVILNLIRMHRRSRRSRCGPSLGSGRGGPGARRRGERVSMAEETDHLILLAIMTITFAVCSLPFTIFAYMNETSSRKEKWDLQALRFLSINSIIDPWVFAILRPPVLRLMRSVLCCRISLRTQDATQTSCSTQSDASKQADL
# assay name: EP2 cAMP functional assay
# condition parameters: unit inferred
Each entry below lists one item and its recorded log10 of EC50 value.
Note the log scale: values are log10 of EC50 expressed in nM.

Some molecules with recorded log10 of EC50:
CCCCCCc1ccc2c(C(=O)Nc3cccc(OCC(=O)O)c3)cccc2c1    0.30
CCCCCCCc1ccc2c(C(=O)Nc3cccc(OCC(=O)O)c3)cccc2c1    1.18
CCCCCOc1ccc2c(C(=O)Nc3cccc(OCC(=O)O)c3)cccc2c1    1.40
Cc1ccc2c(C(=O)Nc3cccc(OCC(=O)O)c3)cccc2c1    1.81
CCCc1ccc2c(C(=O)Nc3cccc(OCC(=O)O)c3)cccc2c1    0.70

QUERY: May I ask what log10 of EC50 has been recorded for CCCCc1ccc2c(C(=O)Nc3cccc(OCC(=O)O)c3)cccc2c1 ?
RESULT: 0.00

###

Measured Ki (EP4 (Homo sapiens, UniProt P35408))
Use µM as the unit, but write only the number.

CCCCc1cnc2c(C(=O)NCCc3ccc(C(=O)O)s3)cccc2c1    2.03

QUERY: Test system EP4 (Homo sapiens, UniProt P35408); read-out Ki; what value for CCCCCOc1ccc2c(C(=O)Nc3cccc(OCC(=O)O)c3)cccc2c1 ?
RESULT: 8.48

###

# measured on: UniProtKB P43116
# assay name: EP2 cAMP functional assay
# condition parameters: unit inferred
pEC50: −log10 of the molar value.
Classification field: 1 = pEC50 at or over 8; 0 = pEC50 under 8.

Known results for compounds:
CCc1ccc2c(C(=O)Nc3cccc(OCC(=O)O)c3)cccc2c1    1
CCCCCC(O)c1ccc2c(C(=O)Nc3cccc(OCC(=O)O)c3)cccc2c1 (stereo not drawn)    1
CCCCCCc1cnc2c(C(=O)Nc3cccc(OCC(=O)O)c3)cccc2c1    1
CCCCCc1ccc2c(C(=O)Nc3cccc(OCC(=O)O)c3)cccc2c1    1

Here's the next entry for you.
QUERY: Form field: pEC50 at least 8? Entry: O=C(O)COc1cccc(NC(=O)c2cccc3ccccc23)c1
RESULT: 0
